Assay: qHTS assay to identify small molecule antagonists of the estrogen receptor beta (ER-beta) signaling pathway - cell viability counter screen (AID 1259382);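 further: HEK293T cells carrying ER-beta-UAS-bla reporter stimulated with estradiol; on the % scale 0 is the no-effect control and ±100 the full control effect; nearly all actives have a fitted effect of over 55% in size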
Conditions: ER-beta-UAS-bla HEK293T viability, CellTiter-Glo luminescence, 16 h; series mostly up to 92.4 µM
Inconclusive results are not listed. Activity calls are given as the source filed them. The call rests on the fitted dose curve; in most records, active means well fitted cell-killing curve with a large enough effect in the repeat runs; inconclusive means weak or mixed curves; inactive means flat fitted curve, though single readings scatter.
VALUE TYPE: outcome

Worked cases, answers included:
If you can, please state the reported outcome value of CCCCC(CC)COCC1CO1 (stereo not drawn) . inactive

Also O=Cc1ccccc1O , if possible. inactive

Also CC(C)=CCCC(C)CCO (stereo not drawn) , if possible. inactive

Also O=c1oc(=O)c2cc3c(=O)oc(=O)c3cc12 , if possible. inactive

Also OC(CCl)CCl , if possible. inactive

Also O=C(COc1ccc(Cl)cc1)N1CCN(Cc2ccc3c(c2)OCO3)CC1 , if possible. inactive

Also Cc1cccc(N(C)C(=S)Oc2ccc3ccccc3c2)c1 , if possible. inactive

Others:
If you can, please state the reported outcome value of O=CCCCC=O . inactive

---

Assay: qHTS assay for small molecule disruptors of the mitochondrial membrane potential - cell viability (AID 720634); further: nearly all actives have a fitted effect of over 20% in size
Settings: HepG2 viability, ATP luminescence (CellTiter-Glo), 1 h; series mostly up to 83.2 µM
Results filed as inconclusive are left out. Activity calls are given as the source filed them. Calls come from the whole dose curve.
Outcome field: choose from active, inactive

Consider the following illustrative entries.
Given O=C(Nc1ccc([N+](=O)[O-])cc1Cl)c1cc(Cl)ccc1O , state the outcome it received in this test. inactive

Also CCCCC(CC)COP(=O)(OCC(CC)CCCC)OCC(CC)CCCC (stereo not given) , if possible. inactive

Also OC[C@H]1O[C@@H]2O[C@H]3[C@H](O)[C@@H](O)[C@@H](O[C@H]4[C@H](O)[C@@H](O)[C@@H](O[C@H]5[C@H](O)[C@@H](O)[C@@H](O[C@H]6[C@H](O)[C@@H](O)[C@@H](O[C@H]7[C@H](O)[C@@H](O)[C@@H](O[C@H]8[C@H](O)[C@@H](O)[C@@H](O[C@H]1[C@H](O)[C@H]2O)O[C@@H]8CO)O[C@@H]7CO)O[C@@H]6CO)O[C@@H]5CO)O[C@@H]4CO)O[C@@H]3CO , if possible. inactive

Also O=C(O)c1ccccc1Nc1cccc(C(F)(F)F)c1 , if possible. inactive

Also O=C(Nc1ccc(Cl)cc1)Nc1ccc(Cl)c(Cl)c1 , if possible. active

Now look at this entry.
Given OC1CCCCCCCCCCC1 , state the outcome it received in this test. inactive

---

Assay: qHTS RealTime-Glo MT Cell Viability Assay in HEK293 cells - 40 hour (AID 1224874); further: on the % scale 0 is the no-effect control and ±100 the full control effect; nearly all actives have a fitted effect of over 50% in size
Conditions: RealTime-Glo luminescence; active compounds read low
Results filed as inconclusive are left out.
VALUE TYPE: max response (%)
The reply should contain only the number, in %.

Worked cases, answers included:
If you can, please state the reported max response value of Nc1ccccc1N . -5.16

Also CCCCC(CC)COP(=O)(OCC(CC)CCCC)OCC(CC)CCCC (stereo not given) , if possible. -14.5

Also OC[C@H]1O[C@@H]2O[C@H]3[C@H](O)[C@@H](O)[C@@H](O[C@H]4[C@H](O)[C@@H](O)[C@@H](O[C@H]5[C@H](O)[C@@H](O)[C@@H](O[C@H]6[C@H](O)[C@@H](O)[C@@H](O[C@H]7[C@H](O)[C@@H](O)[C@@H](O[C@H]8[C@H](O)[C@@H](O)[C@@H](O[C@H]1[C@H](O)[C@H]2O)O[C@@H]8CO)O[C@@H]7CO)O[C@@H]6CO)O[C@@H]5CO)O[C@@H]4CO)O[C@@H]3CO , if possible. 3.33

Also O=C1OC2(c3cc(Br)c(O)c(Br)c3Oc3c2cc(Br)c(O)c3Br)c2c(Cl)c(Cl)c(Cl)c(Cl)c21 , if possible. -3.53

Now consider a different compound.
If you can, please state the reported max response value of CCCCC/C=C/C=C/C=O . -25
